Consider the following binders; for each one, report its glycan array binding signal (z-score).
biological target: Gal(b1-4)GlcNAc6P; assay: glycan array binding signal (z-score within array); higher = stronger binding; details: glycan notation: IUPAC condensed, linker removed
Many of the other results were omitted from the sample, so the strongest signals are more common in it than they were.
Number only, please.

glycan array binding signal (z-score) in this record for GSL-I (Griffonia simplicifolia) (protein) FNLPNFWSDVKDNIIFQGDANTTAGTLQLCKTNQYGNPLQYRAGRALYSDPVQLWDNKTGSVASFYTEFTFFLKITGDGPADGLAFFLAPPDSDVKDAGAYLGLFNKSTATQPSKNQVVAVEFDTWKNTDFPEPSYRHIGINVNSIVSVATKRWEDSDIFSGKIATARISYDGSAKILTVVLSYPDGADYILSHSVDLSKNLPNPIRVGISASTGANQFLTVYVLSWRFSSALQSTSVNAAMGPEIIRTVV : -0.178

glycan array binding signal (z-score) in this record for AAL (Agrocybe aegerita), Q6WY08 (protein) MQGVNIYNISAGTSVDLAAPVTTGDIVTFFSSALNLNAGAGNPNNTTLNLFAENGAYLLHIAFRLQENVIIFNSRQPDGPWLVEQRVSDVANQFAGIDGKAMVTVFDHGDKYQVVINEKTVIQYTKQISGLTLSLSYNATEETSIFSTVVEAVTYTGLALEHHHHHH : -0.163

glycan array binding signal (z-score) in this record for Gal 12 (Homo sapiens), Q96DT0 (protein) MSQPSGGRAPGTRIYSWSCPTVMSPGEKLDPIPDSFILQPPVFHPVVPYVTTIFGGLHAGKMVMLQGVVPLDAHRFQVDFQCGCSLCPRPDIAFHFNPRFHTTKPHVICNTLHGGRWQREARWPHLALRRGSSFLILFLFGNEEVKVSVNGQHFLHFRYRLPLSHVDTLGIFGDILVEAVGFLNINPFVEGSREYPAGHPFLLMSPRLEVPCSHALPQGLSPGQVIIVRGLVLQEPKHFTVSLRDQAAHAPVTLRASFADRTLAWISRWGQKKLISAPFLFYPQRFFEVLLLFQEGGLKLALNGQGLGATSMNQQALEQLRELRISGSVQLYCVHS : 0.272
